Consider the following pIC50 data for Histone deacetylase 1 (Homo sapiens, UniProt Q13547), collected from several reports.
pIC50: −log10 of the molar value.
Label rule, in plain words: pIC50 of 7 and up is Yes, under 7 is No.

{"columns": ["Compound", "Discrete Label"],
 "data": [
  ["CN1CCN(Cc2cccc(C(=O)N3CCC(c4cnc5c(ccn5Cc5ccc(C(=O)NO)cc5)c4)CC3)c2)CC1", "No"],
  ["CC(C)(C)c1[nH]c2cc(NS(C)(=O)=O)ccc2c1CCN1CCCC1c1ccc(/C=C/C(=O)NO)cc1 (stereo not shown)", "Yes"],
  ["Cn1c(=O)n(Cc2ccc(-c3nnc(C(F)F)o3)cn2)c(=O)c2cc(-c3cccnc3)ccc21", "No"],
  ["CC1(C)C(=O)N(Cc2ccc(-c3nnc(C(F)F)o3)cn2)C(=O)c2cc(C3=CCS(=N)(=O)CC3)ccc21 (stereo not shown)", "No"],
  ["O=C(/C=C/c1ccc(CNCC2CCCCC2)c(F)c1)NO", "Yes"],
  ["CCCCN1CCCC(n2cnc3cc(/C=C/C(=O)NO)ccc32)C1 (stereo not shown)", "No"],
  ["CN(CCn1cnc2cc(/C=C/C(=O)NO)ccc21)CCC(C)(C)C", "Yes"],
  ["CN1CCN(c2c(N(Cc3ccc(-c4nnc(C(F)F)o4)cc3)c3ccccc3)c(=O)c2=O)CC1", "No"],
  ["CC(C)(C)OC(=O)N1CCN(c2cnc3c(ccn3Cc3ccc(C(=O)NO)cc3)c2)CC1", "No"],
  ["CC1(C)C(=O)N(Cc2ccc(-c3nnc(C(F)F)o3)cn2)C(=O)c2ccc(N3CC(F)(F)C3)cc21", "No"],
  ["CCC(=O)CCCCC[C@H](NC(=O)[C@@H]1CC(F)(F)CN1)c1ncc(-c2cc3ccccc3nc2OC)o1", "Yes"],
  ["CC1(C)C(=O)N(Cc2ccc(-c3nnc(C(F)F)o3)cn2)C(=O)c2cc(N3CCN(CC(F)(F)F)CC3)ccc21", "No"],
  ["Cc1noc(C)c1-c1cccc2c1C(=O)N(Cc1ccc(-c3nnc(C(F)F)o3)cn1)C(=O)C2(C)C", "No"],
  ["Nc1ccccc1NC(=O)c1ccc(N2CC[C@H](NC(=O)OCc3ccncc3)C2)cc1", "Yes"],
  ["O=C(NO)c1ccc(Cn2ccc3cc(C4=CCNCC4)cnc32)cc1", "No"],
  ["Cc1c(Cc2ccc(C(=O)NO)cc2)c2ccccc2n1CC1CCN(CC2(C)COC2)CC1", "No"],
  ["CCC(=O)CCCCC[C@H](NC(=O)C1CN(C(C)=O)C1)c1ncc(-c2ccc(-n3cccn3)cc2)o1", "Yes"],
  ["CC1(C)C(=O)N(Cc2ccc(-c3nnc(C(F)F)o3)cn2)C(=O)c2cc(-c3cccnc3)ccc21", "No"],
  ["O=C(NO)c1ccc(Cn2ccc3c(C4CCN(Cc5ccccc5F)CC4)ccnc32)cc1", "No"],
  ["Cc1c(Cc2ccc(C(=O)NO)cc2)c2ccccc2n1CCN1CCOCC1", "No"],
  ["Cc1[nH]c2ccccc2c1[C@H]1CCCN(Cc2ccc(/C=C/C(=O)NO)cc2)C1", "Yes"],
  ["CC(C)(O)CN1C2CCC1CC(c1ccnc3c1ccn3Cc1ccc(C(=O)NO)cc1)C2 (stereo not shown)", "No"],
  ["CC1(C)C(=O)N(Cc2ccc(-c3nnc(C(F)F)o3)cn2)C(=O)c2cc(-c3cccc(F)c3)ccc21", "No"]
]}
